// data source = patent EP4477653A1

biological target: human recombinant A3AR (expressed in HEK-293 cells) (Homo sapiens); construct: host or cells: HEK-293 cells; assay: Adenosine receptors antagonism assay (Eurofins), [125I]-AB-MECA radioligand competition; type: binding; settings: [125I]-AB-MECA 0.15 nM, r.t., 120 min; IC50 from dose-response curves; read-out: Potency Class A3AR
Sequence (P0DMS8 whole entry): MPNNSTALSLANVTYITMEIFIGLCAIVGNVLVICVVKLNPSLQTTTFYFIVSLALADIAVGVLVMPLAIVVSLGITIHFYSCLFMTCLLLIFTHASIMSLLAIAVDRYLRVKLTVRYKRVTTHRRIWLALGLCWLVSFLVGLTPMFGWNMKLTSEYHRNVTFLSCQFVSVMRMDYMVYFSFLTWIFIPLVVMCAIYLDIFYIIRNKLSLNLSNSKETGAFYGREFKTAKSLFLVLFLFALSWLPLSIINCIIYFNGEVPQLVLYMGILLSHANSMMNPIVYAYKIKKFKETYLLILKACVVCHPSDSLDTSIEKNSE
property measured: IC50

compound: CCCNc1cc(NCc2ccccn2)c2nnc(C3CC3)n2n1 [compound 190]
IC50: 10 to 100 nM

compound: CCC(CC)Nc1cc(NCCc2cccnc2)c2nnc(C3CC3)n2n1 [compound 87]
IC50: < 1 nM

Hello, please tell me recorded IC50 for this one: CC(C)c1nnc2c(NCc3ccccc3)cc(NCCOCCOCCN)nn12 [compound 8] 100 to 1000 nM
